# TARGET_OF_ASSAY: Histone deacetylase 2 (Homo sapiens, UniProt Q92769)
# Sequence (Q92769 whole entry): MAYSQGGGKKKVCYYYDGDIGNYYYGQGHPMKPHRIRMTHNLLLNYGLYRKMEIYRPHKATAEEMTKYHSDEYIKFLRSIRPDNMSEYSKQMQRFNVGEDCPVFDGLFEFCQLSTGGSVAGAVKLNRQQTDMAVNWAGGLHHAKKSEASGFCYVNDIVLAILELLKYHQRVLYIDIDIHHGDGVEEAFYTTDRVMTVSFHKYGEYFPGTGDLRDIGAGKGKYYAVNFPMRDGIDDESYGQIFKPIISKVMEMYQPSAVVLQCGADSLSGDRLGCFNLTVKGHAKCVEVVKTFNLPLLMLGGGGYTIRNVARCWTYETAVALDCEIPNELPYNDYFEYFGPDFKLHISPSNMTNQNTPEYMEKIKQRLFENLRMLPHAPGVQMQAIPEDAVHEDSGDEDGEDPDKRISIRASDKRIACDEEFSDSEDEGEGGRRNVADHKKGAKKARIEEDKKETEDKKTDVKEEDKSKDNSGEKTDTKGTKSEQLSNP
ASSAY_METRIC: IC50

QUERY: I have this compound here, CCCNNC(=O)[C@H](CC(C)C)NC(=O)[C@@H](O)[C@H](N)Cc1ccccc1 , and I need its recorded IC50.
RESULT: > 10 µM

====

# ASSAY_METHOD_TEXT: Cytotoxicity against human HL7702 cells incubated for 48 hrs by resazurin based microplate reader analysis
# TEST_CONTEXT: HL7702 (L02) cells
ASSAY_METRIC: IC50 at 48 h

QUERY: What value of IC50 at 48 h has been recorded for this entry: COC(=O)c1ccc(CNC(=O)[C@H](CC(C)C)NC(=O)[C@@H](O)[C@H](N)Cc2ccccc2)cc1.Cl
RESULT: > 100 µM
